# assay: The drug is tested on Eubacterium hallii strain: DSM3353 for biotransformation. The drug concentrations were measured before and after a 12-h incubation by liquid-chromatography-coupled mass spectrometry (LC–MS)
# measurement_parameters: anaerobutyricum hallii, 2 µM

compound: CN(C)CCOC(c1ccc(Cl)cc1)c1ccccn1.O=C(O)/C=C\C(=O)O (centres undefined) [CARBINOXAMINE MALEATE]
Bacterial Biotransformation: Compound NOT metabolized

compound: COCCc1ccc(OCC(O)CNC(C)C)cc1.COCCc1ccc(OCC(O)CNC(C)C)cc1.O=C(O)C(O)C(O)C(=O)O (centres undefined) [METOPROLOL TARTRATE]
Bacterial Biotransformation: Compound NOT metabolized

compound: CC1=C(CC(=O)O)c2cc(F)ccc2/C1=C\c1ccc([S+](C)[O-])cc1 (centres undefined)
Bacterial Biotransformation: Compound NOT metabolized
